All figures here come from paper PMC9395446.

Test: Plasma pharmacokinetics after single and multiple oral doses (noncompartmental analysis)
Assay type: in vivo, human
Conditions: human, plasma, oral; single dose 80 mg; read-out: Vz/F, geometric mean (CV%)
readout name: Vd/F (L)
Numeric only. Scale: L

In plain terms, COCCNCc1ccc(-c2cc3nccc(Oc4ccc(NC(=O)C5(C(=O)Nc6ccc(F)cc6)CC5)cc4F)c3s2)nc1 [sitravatinib, Sitravatinib] has a documented Vd/F of 3360

----------
Experiment: Plasma pharmacokinetics after single and multiple oral doses (noncompartmental analysis)
Format: in vivo, human
Details: human, plasma, oral; single dose 120 mg; read-out: Vz/F, geometric mean (CV%)
readout name: Vd/F

In plain terms, `COCCNCc1ccc(-c2cc3nccc(Oc4ccc(NC(=O)C5(C(=O)Nc6ccc(F)cc6)CC5)cc4F)c3s2)nc1` has a documented Vd/F of 6370 L
